Where these numbers come from: patent US20230263822A1

tested on: blood coagulation; test: PT and aPTT assay in cynomolgus monkeys (Example 46); type: in vivo; conditions: Day 24; platelet poor plasma; relative to PBS group
Strand notation (5' to 3'): a small letter for the sugar, then the base; units joined by * are phosphorothioate-linked, units joined directly phosphodiester-linked; [ ] holds rarer units or linkages, { } end groups; capitals alone tell only the bases. e = 2'-O-(2-methoxyethyl) (MOE); [5mC] = 5-methylcytosine; d = 2'-deoxy (DNA)
REPORTED_ENDPOINT: aPTT ratio relative to PBS group

substance="ISIS 449707: 3-8-3, 4-8-4, 2-10-2, 3-10-3 or 4-10-4 MOE microwalk gapmer (Table 46) (antisense e[5mC]*eA*e[5mC]*eA*dG*dT*dT*dT*d[5mC]*dT*dG*dG*e[5mC]*eA*eG*eG)" subject_of_test="blood coagulation" reported_endpoint="aPTT ratio relative to PBS group" observed_result=0.93
substance="ISIS 416850: MOE gapmer, nucleobases 1275 to 1318 of SEQ ID NO: 1 (Table 8) (antisense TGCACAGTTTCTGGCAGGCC; MOE gapmer, wing and gap sizes not given here)" subject_of_test="blood coagulation" reported_endpoint="aPTT ratio relative to PBS group" observed_result=1.05
substance="ISIS 445531: 5-8-5 or 6-8-6 MOE microwalk gapmer (Table 44) (antisense eG*eG*e[5mC]*eA*eT*dT*dG*dG*dT*dG*d[5mC]*dA*d[5mC]*eA*eG*eT*eT*eT)" subject_of_test="blood coagulation" reported_endpoint="aPTT ratio relative to PBS group" observed_result=1.00
substance="ISIS 449710: 3-8-3, 4-8-4, 2-10-2, 3-10-3 or 4-10-4 MOE microwalk gapmer (Table 46) (antisense e[5mC]*eA*e[5mC]*dA*dG*dT*dT*dT*d[5mC]*dT*dG*dG*d[5mC]*eA*eG*eG)" subject_of_test="blood coagulation" reported_endpoint="aPTT ratio relative to PBS group" observed_result=1.00
substance="ISIS 445522: 5-8-5 or 6-8-6 MOE microwalk gapmer (Table 44) (antisense eG*e[5mC]*eA*e[5mC]*eA*dG*dT*dT*dT*d[5mC]*dT*dG*dG*e[5mC]*eA*eG*eG*e[5mC])" subject_of_test="blood coagulation" reported_endpoint="aPTT ratio relative to PBS group" observed_result=1.14
